# TEST METHOD NOTES: NFkB reporter suppression in cystic fibrosis bronchial cells – cell-based, uHTS hits, panel, cytotoxicity readout, dose response (AID 624344)
# CONDITION DESCRIPTION: CF bronchial epithelial cells, PAF-induced NFkB reporter inhibition; with PAF, mean of runs
Entries and their pIC50 values follow.
Conceptually, pIC50 converts a concentration in mol/L into minus its log10.

# pIC50 (compound: CCCCn1nnnc1C(CCc1ccccc1)N1CCC(n2c(=O)[nH]c3ccccc32)CC1 (stereo not given) ) is 5.23

Briefly, pIC50 measured for C[C@]12CCC(O)CC1CCC1C2CC[C@]2(C)C(c3cc(C(F)(F)F)n[nH]3)CCC12 (stereo not given in full) : 5.72

Measured pIC50, O=C(CN1C(=O)CCC1=O)Nc1nc(-c2nc3ccccc3s2)cs1 : 5.31

For CCc1c(C)nc2ccc(Br)cc2c1SCCC#N the compound record lists pIC50 as 5.51

# pIC50 (compound: COc1ccc(-c2cc(=O)oc3c(C)c(OC(=O)c4cccs4)ccc23)cc1 ) is 5.80
